Biological target: SARS-CoV-2 B.1.1.529 spike trimer variant (SARS-CoV-2 B.1.1.529 (Omicron), UniProt P0DTC2 16-1213)
Assay: ELISA
pEC50: −log10 of the molar value.
Measured pEC50 values are reported for all entries that follow.

# Binder, pEC50
data = [
    ("5-H22-A (antibody, V domains shown) VH: QVQLQQSGAELVRPGASVTLSCKASGYTFTDYEMHWMKQTPVHGLEWIGAIDLETGGTVYNQKFKGKAILTADKSSNTAYMALRSLTSEDSAVYYCTREFPHYYGSRYGFPYWGQGTLVTVSA VL: QIVLTQSPAIMSASPGEKVTITCSASSSVSYMHWLQQKPGTSPKLWIYSTSNLASGVPARFSGSGSGTSYSLTISRMEAEDAATYYCQQRSSYPYTFGGGTKLEIK", 8.90),
    ("2-J9-A (antibody, V domains shown) VH: EVQLQQSGPELVKPGASVKMSCKASGYTFTDYNIHWVKQSHGKSLEWIGYINPNNGGTDYNQKFQGKATLTVNKSSSTAYMELRSLTSEDSAVYYCARGGFYGNYGAYYGMDFWGQGTSVTVSS VL: DIQMTQSPASLSASVGETVTITCRTSENIYSHLAWYQQTQGKSPQLLVYNTKTLAEGVPSRFTGSGSGTQFSLKINSLQPEDFGSYYCQHHYGIPPEFGGGTKLEIK", 9.40),
    ("6-C19-A-WT (antibody, V domains shown) VH: EVQLQQSGPELVKPGASVKMSCKASGYTFTDYNIHWVKQSHGKSLEWIGYINPNNGGTDYNQKFQGKATLTVDKSSSTAYMELRSLTSEDSAVYYCARGGFYGNYGSYYGMDFWGQGTSVTVSS VL: DIQMTQSPASLSASVGETVTITCRTSENIYSHLAWYQQTQGKSPHLLVYNAKTLAEGVPSRFSGSGSGTQFSLKINSLQPEDFGSYFCQHHYGIPPEFGGGTKLEIK", 9.44),
    ("9-J11-A (antibody, V domains shown) VH: QVQLQQSGAELVKPGASVKMSCMASGYTFTTYPIEWMKQIHGKSLEWIGNFHPYNDDSKYNEKFKGKATLSVEKSSSTVYLELSRSTSDDSAVYYCARGSYGPYWYFDVWGTGTTVTVSS VL: DIQMTQSPASLSASVGETVTITCRASGDIHNYLVWYQQKQGKSPQLLVYNAKALADGVPSRFSGSGSGTQYSLKINSLQPDDFGSYYCQHFWSIPYTFGGGTKLEIK", 9.41),
]
